For each record, write down the corresponding pIC50.
# Test system: MCF7
# Procedure text: Cytotoxicity against human MCF7 cells assessed as cell viability after 72 hrs by celltiter-blue assay
# Assay type: functional, cell-based
# Experimental parameters: MCF7, 72 h
Expect pIC50 as a plain number equal to -log10 of the molar concentration.

If you can, please state the reported pIC50 value of C/C=C(\C)[C@H]1OC(=O)[C@@H](C)NC(=O)[C@H]([C@@H](C)CC)NC(=O)CN(C)C(=O)[C@@H](Cc2ccc(Cl)cc2)N(C)C(=O)[C@H](C)NC(=O)[C@@H](CC(C)C)OC(=O)/C(C)=C/C[C@H](OCSC)[C@@H]1C . 8.19

Return reported pIC50; argument: C/C=C(\C)[C@@H](O)[C@@H](C)[C@@H]1C/C=C(\C)C(=O)O[C@H](CC(C)C)C(=O)N[C@@H](C)C(=O)N(C)[C@H](Cc2ccc(Cl)cc2)C(=O)N(C)CC(=O)N[C@@H]([C@@H](C)CC)C(=O)N[C@H](C)C(=O)O1 10.60

Please report the recorded pIC50 for C/C=C(\C)[C@H]1OC(=O)[C@@H](C)NC(=O)[C@H]([C@@H](C)CC)NC(=O)CN(C)C(=O)[C@@H](Cc2ccccc2)N(C)C(=O)[C@H](C)NC(=O)[C@@H](CC(C)C)OC(=O)/C(C)=C/C[C@H](OC(=O)c2ccccc2)[C@@H]1C . 8.54

Which pIC50 value is on record for C/C=C(\C)[C@H]1OC(=O)[C@@H](C)NC(=O)[C@H]([C@@H](C)CC)NC(=O)CN(C)C(=O)[C@@H](Cc2ccccc2)N(C)C(=O)[C@H](C)NC(=O)[C@@H](CC(C)C)OC(=O)/C(C)=C/C[C@H](OCSC)[C@@H]1C ? 8.20

Requested read-out: pIC50. Entry: C/C=C(\C)[C@H]1OC(=O)[C@@H](C)NC(=O)[C@H]([C@@H](C)CC)NC(=O)CN(C)C(=O)[C@@H](Cc2ccc(Cl)cc2)N(C)C(=O)[C@H](C)NC(=O)[C@@H](CC(C)C)OC(=O)/C(C)=C/C[C@H](O)[C@@H]1C 11.52

# lookup: pIC50 of C/C=C(\C)[C@H]1OC(=O)[C@@H](C)NC(=O)[C@H]([C@@H](C)CC)NC(=O)CN(C)C(=O)[C@@H](Cc2ccccc2)N(C)C(=O)[C@H](C)NC(=O)[C@@H](CC(C)C)OC(=O)/C(C)=C/C[C@H](O)[C@@H]1C 9.66

Param item = C/C=C(\C)[C@@H](O)[C@@H](C)[C@@H]1C/C=C(\C)C(=O)O[C@H](CC(C)C)C(=O)N[C@@H](C)C(=O)N(C)[C@H](Cc2ccccc2)C(=O)N(C)CC(=O)N[C@@H]([C@@H](C)CC)C(=O)N[C@H](C)C(=O)O1 ; retrieve measured pIC50. 9.54
